Molecular target: commercial GSK3beta (Millipore) (Homo sapiens, UniProt P49841)
Construct: purchased Millipore
Sequence (P49841 whole entry): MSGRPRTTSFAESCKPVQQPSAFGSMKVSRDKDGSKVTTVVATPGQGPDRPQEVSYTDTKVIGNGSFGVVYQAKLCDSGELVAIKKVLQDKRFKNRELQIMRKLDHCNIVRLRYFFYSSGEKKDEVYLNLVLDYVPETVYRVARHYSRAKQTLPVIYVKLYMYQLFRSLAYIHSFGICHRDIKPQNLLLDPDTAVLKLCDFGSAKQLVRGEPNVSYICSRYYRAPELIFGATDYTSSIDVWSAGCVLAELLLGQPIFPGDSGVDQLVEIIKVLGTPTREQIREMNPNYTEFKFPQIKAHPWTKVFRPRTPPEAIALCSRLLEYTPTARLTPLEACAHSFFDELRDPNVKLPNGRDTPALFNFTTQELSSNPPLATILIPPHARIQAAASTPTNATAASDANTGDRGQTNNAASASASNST
Assay: biochemical
Details: protocol 4: 7.5 μM GS1 peptide, 10 μM ATP, 90 minutes at room temperature; read-out: GSK3β inhibitory activity IC50
pIC50: −log10 of the molar value.
Measured endpoint: pIC50

A: CSc1ncc(Cl)c(C(=O)NC2COCCn3c2nc(-c2ccncn2)cc3=O)n1 (racemic)
B: CSc1ncc(Br)c(C(=O)NC2COCCn3c2nc(-c2ccncn2)cc3=O)n1 (racemic)
C: O=C(NC1COCCn2c1nc(-c1ccncn1)cc2=O)c1cc(F)cc2c1OCOC2 (racemic)
INPUT: Put the items above in order of decreasing pIC50. Your task in answering is to list the labels in the requested order.
OUTPUT: C, A, B
